target: Human Neutrophil Elastase (human, UniProt P08246); assay: inhibition of hNE hydrolysis of a fluorogenic substrate, [hNE] = 8.47 × 10^-10 molar
Kd values for the binders below.
Number only, in pM; omit the unit.

Binder | Kd / pM
EPI-HNE-4 (designed binder) EACNLPIVRGPCIAFFPRWAFDAVKGKCVLFPYGGCQGNGNKFYSEKECREYCGVP | 4.6

Turning now to a further record.
Query string: Requested read-out: Kd. Entry: EPI-HNE-3 (designed binder) AACNLPIVRGPCIAFFPRWAFDAVKGKCVLFPYGGCQGNGNKFYSEKECREYCGVP
Result string: 6.2

Source: patent US20060134087A1
